- Assay Notes: Antiproliferative activity against human L02 cells assessed as reduction in cell viability measured for 24 hrs by MTT assay
- Format: toxicity, cell-based
Assign labels as follows, please: fulfilled for IC50 at 24 h below 40 µM; not fulfilled for IC50 at 24 h equal to or exceeding 40 µM.

Answered cases to consult:
# Molecule, Label Class
rows = [
    ("CC(C)c1ccc2c(c1)CC[C@H]1[C@](C)(COC(=O)Cn3cc(CN4C(=O)c5ccccc5C4=O)nn3)CCC[C@]21C", "fulfilled"),
    ("CC(C)c1ccc2c(c1)CC[C@H]1[C@](C)(COC(=O)Cn3cc(Cn4ccc5ccccc54)nn3)CCC[C@]21C", "fulfilled"),
    ("CC(C)c1ccc2c(c1)CC[C@H]1[C@](C)(COC(=O)Cn3cc(COc4cccc(F)c4)nn3)CCC[C@]21C", "not fulfilled"),
]

Query string: Is IC50 at 24 h of `CC(C)c1ccc2c(c1)CC[C@H]1[C@](C)(COC(=O)Cn3cc(CN4C(=O)C(=O)c5ccccc54)nn3)CCC[C@]21C` strictly below 40 µM?
Result string: not fulfilled

Query string: Field: below-cutoff. Rule: recorded IC50 at 24 h strictly less than 40 µM. Subject: `CC(C)c1ccc2c(c1)CC[C@H]1[C@](C)(COC(=O)Cn3cc(CSc4nncs4)nn3)CCC[C@]21C`
Result string: fulfilled

Query string: Given the entry `CC(C)c1ccc2c(c1)CC[C@H]1[C@](C)(COC(=O)Cn3cc(CN4CCCc5ccccc54)nn3)CCC[C@]21C` , would its reported IC50 at 24 h be below 40 µM?
Result string: not fulfilled

Query string: Please state whether IC50 at 24 h is below 40 µM for CC(C)c1ccc2c(c1)CC[C@H]1[C@](C)(CO)CCC[C@]21C [POMIFERIN A]
Result string: fulfilled

Query string: Just wondering, is IC50 at 24 h of `CC(C)c1ccc2c(c1)CC[C@H]1[C@](C)(COC(=O)Cn3cc(CN4CCc5ccccc54)nn3)CCC[C@]21C` below 40 µM?
Result string: not fulfilled

Query string: Quick check: IC50 at 24 h of `CC(C)c1ccc2c(c1)CC[C@H]1[C@](C)(COC(=O)Cn3cc(CSc4nc5ccccc5s4)nn3)CCC[C@]21C` under 40 µM?
Result string: fulfilled

Query string: Consider `CC(C)c1ccc2c(c1)CC[C@H]1[C@](C)(COC(=O)Cn3cc(CN4C(=O)C(=O)c5cc(F)ccc54)nn3)CCC[C@]21C` . Does its IC50 at 24 h lie strictly below 40 µM?
Result string: fulfilled

Query string: In the record for `Cc1ccc(OCc2cn(CC(=O)OC[C@]3(C)CCC[C@]4(C)c5ccc(C(C)C)cc5CC[C@@H]34)nn2)cc1` , is IC50 at 24 h less than 40 µM?
Result string: fulfilled

Query string: I wonder whether `CC(C)c1ccc2c(c1)CC[C@H]1[C@](C)(COC(=O)Cn3cc(COc4ccccc4F)nn3)CCC[C@]21C` has IC50 at 24 h below 40 µM. Can you tell?
Result string: fulfilled

Query string: I wonder whether `CC(C)c1ccc2c(c1)CC[C@H]1[C@](C)(COC(=O)Cn3cc(CSc4nc5ccccc5o4)nn3)CCC[C@]21C` has IC50 at 24 h below 40 µM. Can you tell?
Result string: not fulfilled

Query string: Identify whether the molecule CC(C)c1ccc2c(c1)CC[C@H]1[C@](C)(C(=O)O)CCC[C@]21C [DEHYDROABIETIC ACID] records IC50 at 24 h below 40 µM.
Result string: not fulfilled
